System name: T1, cynomolgus PD-L1-Fc (SinoBiological) (cynomolgus, UniProt G7PSE7 19-238)
T1 construct: Bought; also called Cyno PD-L1; not shown: Fc carrier (and any linker) of the bought SinoBiological fusion
T1 sequence (G7PSE7 entry or part of it limits assumed): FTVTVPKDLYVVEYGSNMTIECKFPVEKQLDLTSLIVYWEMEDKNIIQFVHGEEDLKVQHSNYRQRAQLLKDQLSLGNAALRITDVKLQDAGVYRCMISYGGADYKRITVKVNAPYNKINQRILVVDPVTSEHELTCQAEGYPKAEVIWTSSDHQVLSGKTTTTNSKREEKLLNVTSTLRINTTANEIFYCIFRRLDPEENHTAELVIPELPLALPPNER
Method: BLI (Octet RED96), VHH on Penta-HIS sensor, cynomolgus PD-L1-Fc in solution
Property measured: kon (M⁻¹ s⁻¹)

2LIG97 VHH-(His)6 (pHEN6C-PelB-PD-L1 VHH-(His)6) (VHH) VHH: QVQLQESGGGLVQAGESLRLSCTASGTIFSINRMDWFRQAPGKQRELVALITSDGTPTYADSAKGRFTISRDNTKKTVSLQMNSLKPEDTAVYYCHVSSGVYNYWGQGTQVTVSS; 319000

a = 2LIG99 VHH-(His)6 (pHEN6C-PelB-PD-L1 VHH-(His)6) (VHH) VHH: QVQLQESGGGLVQAGGSLRLSCTASGTIFSINRMDWFRQAPGKQRELVALITSDGTPAYADSAKGRFTISRDNTKKTVSLQMNSLKPEDTAVYYCHVSSGVYNYWGQGTQVTVSS
b = 2LIG27 VHH-(His)6 (pHEN6C-PelB-PD-L1 VHH-(His)6) (VHH) VHH: QVQLQESGGGVVQAGGSLRLSCTASGTIFSINRMDWFRQAPGKQRELVALITSDGTPTYADSAKGRFTISRDNTKKTVSLQMNSLKPEDTAVYYCHVSSGVYNYWGQGTQVTVSS
c = 2LIG189 VHH-(His)6 (pHEN6C-PelB-PD-L1 VHH-(His)6) (VHH) VHH: QVQLQESGGGLVQAGGSLRLSCAASGKIFSGNDMGWYRQAPGKQRELVGIITSGGITDYADAVKGRFTISRDNAKNMMYLQMNSLKPEDTAVYYCNMRDRTIWWGQGTQVTVSS
Kindly order the items shown according to kon, from the highest value down. Quick reminder: the answer is the labels in the order asked.
a, b, c

1 = 3LIG8 VHH-(His)6 (pHEN6C-PelB-PD-L1 VHH-(His)6) (VHH) VHH: QVQLQESGGGLVQPGGSLRLSCTASGTIFSINRMDWFRQAPGKQRELVALITSDGTPTYADSAKGRFTISRDNTKKTVSLQMNSLKPEDTAVYYCHVSSGVYNYWGQGTQVTVSS
2 = 2LIG176 VHH-(His)6 (pHEN6C-PelB-PD-L1 VHH-(His)6) (VHH) VHH: QVQLQESGGGLVQAGGSLRLSCAASESIFSIEAMGWYRQAPGKQRELVAAIFGGGFTNYADSVKGRFTISRDNANRTVYLQMNSLKPEDTAVYYCNADLVSGSSRLYDYWGQGTQVTVSS
Name the one with the greater kon value, either 1 or 2 as given. Your choice should be expressed through its label.
1
